B1: CPEB3 Ribozyme (parent)
chain: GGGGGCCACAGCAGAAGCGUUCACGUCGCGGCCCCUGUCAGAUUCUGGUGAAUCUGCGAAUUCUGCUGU

variants of: B1; test: self-cleavage, relative activity (ratio to wild type); higher = more cleavage; co-transcriptional
Please map values of self-cleavage to classes as shown: low (below 0.2), mid (0.2 to below 0.7), high (0.7 or more)

{"orderedResidues": "GGGGGCCACAGCAGAAGAGUUCACGUCGCGGCCCCUGUCAGAUUCUCGUGAAUCUGCGAAUUCUGCUGU [C18A G47C]", "discreteLabel": "low"}
{"orderedResidues": "GGGGGCCACACCAGAAGCGUUCACGUCGCGGCCCCUGUCAGAUUCUGGUAAAUCUGCGAAUUCUGCUGU [G11C G50A]", "discreteLabel": "high"}
{"orderedResidues": "GGGGGCCACAGCAGAAGCGUUCACGUCGCGGCCCCUGUCAGCUUCUAGUGAAUCUGCGAAUUCUGCUGU [A42C G47A]", "discreteLabel": "high"}
{"orderedResidues": "GGGGGCCACAGCAGAAGCGCUCACGUCGCGGCCCCUGUCAGAUUCUGGAGAAUCUGCGAAUUCUGCUGU [U20C U49A]", "discreteLabel": "low"}
{"orderedResidues": "GGGGGCCACAGCAGAAGCGUUCACCUCGCGGCCCCUGUCAGAUUCUGGGGAAUCUGCGAAUUCUGCUGU [G25C U49G]", "discreteLabel": "low"}
{"orderedResidues": "GGGGGCCACAGAAGAAGCGUUCACGUCGCGGCCCCUGUAAGAUUCUGGUGAAUCUGCGAAUUCUGCUGU [C12A C39A]", "discreteLabel": "mid"}
{"orderedResidues": "GGGAGCCACAGCAGAAGCGUUCGCGUCGCGGCCCCUGUCAGAUUCUGGUGAAUCUGCGAAUUCUGCUGU [G4A A23G]", "discreteLabel": "high"}
{"orderedResidues": "GGGGGCCACAGCAGAAGCGUUCACGUCGCGGCCGCUGUCAGAUUGUGGUGAAUCUGCGAAUUCUGCUGU [C34G C45G]", "discreteLabel": "mid"}
{"orderedResidues": "GGGGGCCACAGCAGACGCGUUCACGGCGCGGCCCCUGUCAGAUUCUGGUGAAUCUGCGAAUUCUGCUGU [A16C U26G]", "discreteLabel": "low"}
{"orderedResidues": "GGGGGCCACAGCAGAAGCGUUCACGUCGCGGGCCCUGUCAGAUUCUGGUGAAACUGCGAAUUCUGCUGU [C32G U53A]", "discreteLabel": "mid"}
{"orderedResidues": "GGGGGCCACAGCAGAAGCGUUCACGUCGCGGCCGCUGACAGAUUCUGGUGAAUCUGCGAAUUCUGCUGU [C34G U38A]", "discreteLabel": "high"}
{"orderedResidues": "GGGGGCCACAUCAGAAGCGUUCACGUGGCGGCCCCUGUCAGAUUCUGGUGAAUCUGCGAAUUCUGCUGU [G11U C27G]", "discreteLabel": "low"}
{"orderedResidues": "GGGGGCCACAGCAGAAGCGUUCUCGUCCCGGCCCCUGUCAGAUUCUGGUGAAUCUGCGAAUUCUGCUGU [A23U G28C]", "discreteLabel": "mid"}
{"orderedResidues": "GGGGGCCACAGCAGAAGCGUUCACGUCGCGACCCGUGUCAGAUUCUGGUGAAUCUGCGAAUUCUGCUGU [G31A C35G]", "discreteLabel": "mid"}
{"orderedResidues": "GGGGGCCACAGCAGAAGCGUUCGCGUCGCGGCCCCUGUCAGAUUCUGGUGAAUCUGCGAAUUCUGCUUU [A23G G68U]", "discreteLabel": "high"}
{"orderedResidues": "GGGGGCCACAGGAGAAGCGUUCACGUCGCGGCCCCUGUCAGAUUCUGGUGAAUCUGCGAAUUCUUCUGU [C12G G65U]", "discreteLabel": "high"}
{"orderedResidues": "GGGGGCCACAGCAGAAGCGUUCACGUCGCGGCCCCUGUCAGAUUCUGGUGAAUCUGCAAAUUCUGGUGU [G58A C66G]", "discreteLabel": "high"}
{"orderedResidues": "GGGGGCCACAGCAGAAGCGUUCACGUCGCGGCCCCUGUCAGAUUCUGAUGAAUCUGCGAAAUCUGCUGU [G48A U61A]", "discreteLabel": "high"}
{"orderedResidues": "GGGGGCCACAGCAGAAGCGUUCACUUCGCGGCCCCUGUCAGAUUCUGGUGAAUCUGCGAAUUCCGCUGU [G25U U64C]", "discreteLabel": "low"}
{"orderedResidues": "GGGGGUCACAGCAGACGCGUUCACGUCGCGGCCCCUGUCAGAUUCUGGUGAAUCUGCGAAUUCUGCUGU [C6U A16C]", "discreteLabel": "low"}
